Field: self-cleavage kobs at 2500 uM GlcN6P. Provide a value for each of the variants that follow.
B1: glmS ribozyme (parent)
chain: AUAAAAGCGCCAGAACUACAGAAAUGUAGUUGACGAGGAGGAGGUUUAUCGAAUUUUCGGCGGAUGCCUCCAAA

# Variants of: B1
# test: self-cleavage kobs at 2500 uM GlcN6P; higher = faster cleavage; RNA array
# assay_context: with glucosamine-6-phosphate
Variants at the floor of the assay were thinned out.
Unit s⁻¹ implied. Number only.

## Task Can you look up the measured self-cleavage kobs at 2500 uM GlcN6P of A14G U69A C70A for me?
## Result 8.42e-05

## Task Can you look up the measured self-cleavage kobs at 2500 uM GlcN6P of A12U U31G for me?
## Result 0.00841

## Task Can you look up the measured self-cleavage kobs at 2500 uM GlcN6P of A14U G32C U47A for me?
## Result 8.18e-05

## Task Can you look up the measured self-cleavage kobs at 2500 uM GlcN6P of C67A U69G for me?
## Result 6.57e-05

## Task Can you look up the measured self-cleavage kobs at 2500 uM GlcN6P of A15U U30G U46G C67G for me?
## Result 0.000146

## Task Can you look up the measured self-cleavage kobs at 2500 uM GlcN6P of U31A A48G for me?
## Result 3.3e-05

## Task Can you look up the measured self-cleavage kobs at 2500 uM GlcN6P of A14U C16U U47G C58U G60A U69G for me?
## Result 0.000102

## Task Can you look up the measured self-cleavage kobs at 2500 uM GlcN6P of A15C C16G U31A A53G C58A for me?
## Result 4.06e-05

## Task Can you look up the measured self-cleavage kobs at 2500 uM GlcN6P of A14G A15U A48U for me?
## Result 0.000128

## Task Can you look up the measured self-cleavage kobs at 2500 uM GlcN6P of C16U G40C for me?
## Result 0.00184

## Task Can you look up the measured self-cleavage kobs at 2500 uM GlcN6P of A39C G40U for me?
## Result 7.56e-05

## Task Can you look up the measured self-cleavage kobs at 2500 uM GlcN6P of A48U U69G for me?
## Result 7.45e-05

Hello, the source for this data is the supplement of paper PMC7125110, in case you need it.
